# Tested on: PC-3 prostate
# experimental-details: NCI-60 one-dose screen, 48 h (100 = growth as untreated, 0 = no growth, -100 = all killed)
# protocol-conditions: 10 µM unless noted
The panel holds about 83,000 compounds, 20% with a hit somewhere; the sample as a whole holds those more often.

molecule	tested-system	growth (%)
COc1cc(CNC(=O)/C=C/c2ccc3c(c2)OCO3)ccc1OCc1cn(-c2ccc([N+](=O)[O-])cc2)nn1	PC-3 prostate	103
O=C(COc1ccc(NC(=O)Nc2ccc(Cl)c(Cl)c2)cc1)N=Nc1c(O)[nH]c2ccc([N+](=O)[O-])cc12	PC-3 prostate	71.6
CCCCCCCCc1ccc(S(=O)(=O)Nc2ccc(CC)cc2C(=O)O)cc1	PC-3 prostate	89.7
CC(C)CSc1nc(NCCc2c[nH]c3ccccc23)c(C#N)c(-c2ccccc2)n1	PC-3 prostate	17.8
O=C(NN1C(=O)/C(=C/C=C/c2ccc([N+](=O)[O-])o2)SC1=S)c1cccc(O)c1	PC-3 prostate	-40.2
CCN(CC)c1ccnc(CNCCSC(c2ccccc2)(c2ccccc2)c2ccc(C)cc2)c1	PC-3 prostate	-76.6
C#C[C@]1(O)CC[C@H]2[C@@H]3CC=C4c5sc(-c6ccc(O)c(O)c6)nc5CC[C@]4(C)[C@H]3CC[C@@]21C	PC-3 prostate	-58.9
COc1cc2oc(-c3cccc(NC(=O)[C@H](CC(N)=O)NC(=O)OC(C)(C)C)c3)cc(=O)c2c(OC)c1OC	PC-3 prostate	75.8
COc1ccc2[nH]cc(-c3cc(N)n4nc(-c5cn(C)c6ccccc56)cc4n3)c2c1	PC-3 prostate	-67.6
COc1cc2oc(-c3cccc(C(=O)Nc4cccc([N+](=O)[O-])c4)c3)cc(=O)c2c(OC)c1OC	PC-3 prostate	33.3
C=C1CC[C@@H]2[C@]3(C)COC(c4cn[nH]c4-c4ccc(C)cc4)O[C@@H]3CC[C@@]2(C)[C@@H]1C/C=C1/C(=O)OCC1O (stereo partly drawn)	PC-3 prostate	37.6
CC1(c2cc3cc(Br)ccc3oc2=O)NC(=O)c2c(/C=C/C(=O)OC3CC4CCC3(C)C4(C)C)cccc2N1 (stereo not drawn)	PC-3 prostate	36.5
COc1cc(OC)cc(C(=O)Nc2cccc(-c3cn(-c4ccc(S(N)(=O)=O)cc4)nn3)c2)c1	PC-3 prostate	91.4
COc1cc(/C=C/C(=O)c2nnn(-c3ccc(Cl)cc3)c2C)cc(OC)c1OC	PC-3 prostate	30.6
C/C(=N\N=C1/C(=O)Nc2ccccc21)c1ccc2c(c1)Nc1ccccc1S2	PC-3 prostate	63.6
O=C(/C=C/c1cccc(OCc2ccc(F)cc2)c1)c1nc2ccccc2[nH]1	PC-3 prostate	15
CCN(CC)CCOc1ccc(Nc2ncc3cc(-c4ccc(O)c(C#N)c4)c(=O)n(C)c3n2)cc1	PC-3 prostate	69.5
Cn1nc(C(F)(F)F)cc1-c1cc(Cl)c(COc2ccc(Cl)cc2)c(-c2ccc(Cl)c(C(F)(F)F)c2)c1O	PC-3 prostate	-12.3

* * *

# Test system: NCI-H522 lung
# experimental-details: NCI-60 one-dose screen, 48 h
# protocol-conditions: 10 µM unless noted
The panel holds about 83,000 compounds, 20% with a hit somewhere; the sample as a whole holds those more often. Active and inactive are the calls of the source. How the source made its calls: active means growth percent below 10; inactive means the rest.
Classes used: Yes for active, No for inactive

compound	tested-system	label
CN(C)c1ccnc(CNCCSC2(c3ccccc3)c3ccccc3C=Cc3ccccc32)c1	NCI-H522 lung	Yes
COc1cc2c(c(OC)c1OC)C(=O)CC(c1cccc(NC(=O)c3cc(NC(=O)[C@@H](N)CO)ccc3C)c1)O2 (some centres undefined)	NCI-H522 lung	No
Cc1cc2nc3c4ccccc4n(CC4=NCCN4)c3nc2cc1C	NCI-H522 lung	Yes
CSc1ccc(NC(=O)c2ccc3nnn(/C(C#N)=C/c4ccccn4)c3c2)cc1	NCI-H522 lung	Yes
COc1ccc(-c2nc3cc(C)ccc3n2CC(=O)N=Nc2c(O)[nH]c3ccc(Br)cc23)cc1	NCI-H522 lung	No
COc1c(F)ccc(C(=O)Nc2ccc3nc(NC(=O)C4CCCN(S(=O)(=O)c5ccc(Br)s5)C4)sc3c2)c1F (centres undefined)	NCI-H522 lung	No
O=C(c1ccc(Cl)cc1)c1ccc(OCCCN2CCN(c3ccncc3)CC2)cc1	NCI-H522 lung	No
O=C1C(=Nc2ccc(F)c(Cl)c2)c2cccc3cccc1c23	NCI-H522 lung	No
COc1cc(-c2nc3cc(Cl)c(Cl)cc3[nH]2)ccc1OCc1nnc(-c2cccs2)o1	NCI-H522 lung	No
COc1ccc2[nH]cc(-c3nnc(N)nc3-c3c[nH]c4ncc(Br)cc34)c2c1	NCI-H522 lung	No
COc1ccc(-c2ccnc(SCc3cc4cc(Cl)ccc4[nH]c3=O)n2)cc1	NCI-H522 lung	No
Cn1cc(-c2cc(N)n3nc(-c4cn(C)c5ccccc45)cc3n2)c2cc(Br)ccc21	NCI-H522 lung	Yes
N#Cc1c(-c2ccc(Br)cc2)nc2n[nH]c(-c3ccc(Br)cc3)c2c1-c1ccc(F)cc1	NCI-H522 lung	No
O=C(COc1ccc(NC(=O)Nc2ccc(Cl)c(Cl)c2)cc1)N=Nc1c(O)[nH]c2ccc(Br)cc12	NCI-H522 lung	Yes
Cn1cc(-c2cc(N)n3nc(-c4cn(C)c5ccc(Cl)cc45)cc3n2)c2ccccc21	NCI-H522 lung	No
Cc1nc(Nc2ccccn2)sc1C(=O)CC(SCC(=O)Nc1ccc(Cl)cc1)c1ccccc1F (centres undefined)	NCI-H522 lung	Yes
COc1cc(-c2ccc(/C=N/NC(=O)c3[nH]c4ccc(Br)cc4c3-c3ccccc3)s2)cc(OC)c1OC	NCI-H522 lung	No
COc1ccc(-c2nnc3ccc(N/N=C/c4ccc(C)cc4)nn23)cc1	NCI-H522 lung	No
Cc1ccccc1[C@H]1C(C(=O)c2ccc(Cl)cc2)C2(N[C@@H]1c1ccccc1)C(=O)Nc1ccc(Br)cc12 (some centres undefined)	NCI-H522 lung	Yes

* * *

# System: HOP-92 NSCLC
# experimental-details: NCI-60 one-dose screen, 48 h (100 = growth as untreated, 0 = no growth, -100 = all killed)
# protocol-conditions: 10 µM unless noted
This is part of a sample that, as a whole, favours compounds with a hit. Of some 83,000 tested, about 20% had one in any assay.
measurement-type: growth (%)

compound	quantity-unit	readout-value
CCOC(=O)C1=C(N)N(c2ccccc2)C2=C(C(=O)CC(C)(C)C2)C1c1ccc(Cl)cc1Cl (stereo not given)	%	-0.322
COc1cc(-c2ccc(/C=N/NC(=O)c3[nH]c4ccc(Br)cc4c3-c3ccccc3)s2)cc(OC)c1OC	%	69.7
COc1ccc(C(=O)/C=C/c2cccc(Br)c2)cc1S(N)(=O)=O	%	-9.79
CC(=O)OC[C@@]1(C)C2CC[C@]3(C)C(CC=C4C5CC(C)(C)CC[C@]5(C(=O)Nc5cccc(C)c5)CC[C@]43C)[C@@]2(C)C[C@@H](OC(C)=O)[C@@H]1OC(C)=O (stereo not given in full)	%	50.8
COc1cc(-c2cc(-c3cccc(OCC(=O)O)c3)[nH]c(=O)c2C#N)cc(OC)c1OC	%	85.4
CC(C)CSc1nc(NCCc2c[nH]c3ccccc23)c(C#N)c(-c2ccccc2)n1	%	61.7
O=C(O)c1ccc(-c2ccc(/C=N/NC(=O)c3[nH]c4ccc(Br)cc4c3-c3ccccc3)s2)cc1	%	-4.63
O=C(COc1ccc(NC(=O)Nc2ccc(Cl)cc2)cc1)N/N=C/c1ccccc1	%	-77.9
N#Cc1ccc(C(=O)Nn2c(N)cc3ccccc3c2=O)cc1	%	88.2
S=C(Nc1ccccc1)Nc1ccc(OCc2nc3ccccc3[nH]2)cc1	%	74.8
C#CCOc1cc(N(CC)CC)ccc1C(C(=O)NC(C)(C)C)N(C(=O)C1CCc2cc(F)ccc2O1)c1cc(C)cc(C)c1 (stereo not given)	%	9.21
N#Cc1c(-c2cccc3ccccc23)cc(-c2cccc(OCC(=O)O)c2)[nH]c1=O	%	98.6
Nc1cccc(SCc2cc3ccccc3[nH]c2=O)c1	%	74.6
Cc1cccc(NC(=O)CN2CCN(c3ncnc4c3cnn4-c3ccccc3)CC2)c1	%	98.2
CCCCSc1nc(NCCc2c[nH]c3ccccc23)c(C#N)c(-c2ccccc2)n1	%	-1.67
S=c1c2ccccc2nc2n1CCc1c-2[nH]c2ccccc12	%	25.2
CC(=O)Oc1ccc(/C=C/C(=O)N[C@@H](Cc2ccccc2)C(O)C(=O)NCc2ccccc2)cc1OC(C)=O (stereo not given in full)	%	90
CC12CC[C@@H]3[C@]4(C)COC(c5c(F)cccc5F)O[C@@H]4CC[C@@]3(C)[C@@H]1CC(C1=CCOC1=O)O2 (stereo not given in full)	%	-3.83
O=C1Nc2ccc([N+](=O)[O-])cc2C1=Nc1ccccc1	%	118
Cn1cc(-c2nc(N)nnc2-c2c[nH]c3ccc(F)cc23)c2cccnc21	%	46.5

* * *

# Test system: NCI/ADR-RES ovarian
# experimental-details: NCI-60 one-dose screen, 48 h (100 = growth as untreated, 0 = no growth, -100 = all killed)
# protocol-conditions: 10 µM unless noted
This is part of a sample that, as a whole, favours compounds with a hit. Of some 83,000 tested, about 20% had one in any assay.
measurement-type: growth (%)

chem-smiles	tested-system	readout-value
O=C(/C=C/c1cccc(OCc2ccccc2)c1)c1nc2ccccc2[nH]1	NCI/ADR-RES ovarian	64.5
CCC(C)(C)c1ccc(OCCCCN2CCN(c3ccncc3)CC2)cc1	NCI/ADR-RES ovarian	59.7
S=c1c2ccccc2nc2n1CCc1c-2[nH]c2ccccc12	NCI/ADR-RES ovarian	49.6
C=Cn1cc(C(=O)O)c(=O)c2cc(F)c(N3CCN(c4nccc(-c5nccs5)n4)CC3)cc21	NCI/ADR-RES ovarian	-39.5
CCCSc1nc(Nc2ccc(S(N)(=O)=O)cc2)c(C#N)c(-c2ccc(Cl)cc2)n1	NCI/ADR-RES ovarian	26.8
Brc1ccc(N/N=C/c2c[nH]c3ccc(Br)cc23)nc1	NCI/ADR-RES ovarian	-24.5
COc1cccc(/C=C/C(=O)c2ccc(OC)c(S(N)(=O)=O)c2)c1	NCI/ADR-RES ovarian	13.3
O=C(COc1ccc(NC(=O)Nc2ccc(Cl)c(Cl)c2)cc1)N=Nc1c(O)[nH]c2ccc([N+](=O)[O-])cc12	NCI/ADR-RES ovarian	100
O=C(N=Nc1c(O)[nH]c2ccc([N+](=O)[O-])cc12)c1ccc2nc(-c3ccccc3)[nH]c2c1	NCI/ADR-RES ovarian	103
CCOC(=O)c1ccc(Nc2nc(NN)nc(-c3ccc(F)cc3)c2C#N)cc1	NCI/ADR-RES ovarian	110

Origin of values: PubChem BioAssay (NCI)
